The values you see were collected from patent US10065962B2.

Listed below: half-life values for each entry.
Test: Evaluation of pharmacokinetics in rats
Assay type: in vivo
Conditions: rat, whole blood, po; male SD rats, 5 mg/kg intragastric; read-out: Half-life T1/2 (converted)
PARAMETER_MEASURED: half-life (h)

CS(=O)(=O)n1cc2c(n1)CN([C@@H]1C[C@H](N)[C@@H](c3cc(F)ccc3F)O[C@@H]1C(F)(F)F)C2 = 7.1
CS(=O)(=O)n1cc2c(n1)CN([C@H]1CO[C@H](c3cc(F)ccc3F)[C@@H](N)C1)C2 = 6.1

----------
Test: Concentration of the compound in monkey plasma by LC-MS/MS
Format: in vivo
Details: male, rhesus monkey, Rhesus monkeys, oral 10.0 mg/kg, 264 h
PARAMETER_MEASURED: concentration at 264 h

CS(=O)(=O)n1cc2c(n1)CN([C@@H]1C[C@H](N)[C@@H](c3cc(F)ccc3F)O[C@@H]1C(F)(F)F)C2 = 32 nM

----------
Assay: Concentration of the compound in monkey plasma by LC-MS/MS
Assay type: in vivo
Settings: male, rhesus monkey, Rhesus monkeys, oral 10.0 mg/kg, 48 h
PARAMETER_MEASURED: concentration at 48 h (nM)

CS(=O)(=O)n1cc2c(n1)CN([C@@H]1C[C@H](N)[C@@H](c3cc(F)ccc3F)O[C@@H]1C(F)(F)F)C2 = 1940

----------
Assay: Concentration of the compound in monkey plasma by LC-MS/MS
Format: in vivo
Details: male, rhesus monkey, Rhesus monkeys, oral 10.0 mg/kg, 0.5 h
PARAMETER_MEASURED: concentration at 0.5 h (nM)

CS(=O)(=O)n1cc2c(n1)CN([C@@H]1C[C@H](N)[C@@H](c3cc(F)ccc3F)O[C@@H]1C(F)(F)F)C2 [Compound 3] = 270

----------
Assay: Concentration of the compound in monkey plasma by LC-MS/MS
Assay type: in vivo
Conditions: male, rhesus monkey, Rhesus monkeys, oral 10.0 mg/kg, 2 h
PARAMETER_MEASURED: concentration at 2 h

CS(=O)(=O)n1cc2c(n1)CN([C@@H]1C[C@H](N)[C@@H](c3cc(F)ccc3F)O[C@@H]1C(F)(F)F)C2 = 5.64 µM

----------
Test: Concentration of the compound in monkey plasma by LC-MS/MS
Assay type: in vivo
Conditions: male, rhesus monkey, Rhesus monkeys, oral 10.0 mg/kg, 0 h
PARAMETER_MEASURED: concentration at 0 h (nM)

CS(=O)(=O)n1cc2c(n1)CN([C@@H]1C[C@H](N)[C@@H](c3cc(F)ccc3F)O[C@@H]1C(F)(F)F)C2 [Compound 3] = 0

----------
Test: Concentration of the compound in monkey plasma by LC-MS/MS
Assay type: in vivo
Conditions: male, rhesus monkey, Rhesus monkeys, oral 10.0 mg/kg, 12 h
PARAMETER_MEASURED: concentration at 12 h (µM)

CS(=O)(=O)n1cc2c(n1)CN([C@@H]1C[C@H](N)[C@@H](c3cc(F)ccc3F)O[C@@H]1C(F)(F)F)C2 = 4.01

----------
Test: Concentration of the compound in monkey plasma by LC-MS/MS
Format: in vivo
Conditions: male, rhesus monkey, Rhesus monkeys, oral 10.0 mg/kg, 8 h
PARAMETER_MEASURED: concentration at 8 h (µM)

CS(=O)(=O)n1cc2c(n1)CN([C@@H]1C[C@H](N)[C@@H](c3cc(F)ccc3F)O[C@@H]1C(F)(F)F)C2 = 4.22

----------
Test: Concentration of the compound in monkey plasma by LC-MS/MS
Type: in vivo
Conditions: male, rhesus monkey, Rhesus monkeys, oral 10.0 mg/kg, 216 h
Protocol: The laboratory animals were healthy male Rhesus monkeys each weighing about 5 kg, provided by Sichuan Primed Bio-tech Group Co. Ltd. Fasted Rhesus monkeys were grouped based on the body weight. […] DPP-IV enzymatic activity was ≥80% was calculated for the test compounds, and the concentration of the compounds in plasma was measured by LC-MS/MS.
PARAMETER_MEASURED: concentration at 216 h (nM)

CS(=O)(=O)n1cc2c(n1)CN([C@@H]1C[C@H](N)[C@@H](c3cc(F)ccc3F)O[C@@H]1C(F)(F)F)C2 [Compound 3] = 71

----------
Assay: Concentration of the compound in monkey plasma by LC-MS/MS
Assay type: in vivo
Settings: male, rhesus monkey, Rhesus monkeys, oral 10.0 mg/kg, 104 h
Experimental: The laboratory animals were healthy male Rhesus monkeys each weighing about 5 kg, provided by Sichuan Primed Bio-tech Group Co. Ltd. Fasted Rhesus monkeys were grouped based on the body weight. […] DPP-IV enzymatic activity was ≥80% was calculated for the test compounds, and the concentration of the compounds in plasma was measured by LC-MS/MS.
PARAMETER_MEASURED: concentration at 104 h

CS(=O)(=O)n1cc2c(n1)CN([C@@H]1C[C@H](N)[C@@H](c3cc(F)ccc3F)O[C@@H]1C(F)(F)F)C2 [Compound 3] = 440 nM

----------
Listed below: AUC(0-t) values for each entry.
Assay: Evaluation of pharmacokinetics in rats
Type: in vivo
Conditions: rat, whole blood, po; male SD rats, 5 mg/kg intragastric
PARAMETER_MEASURED: AUC(0-t)

CS(=O)(=O)n1cc2c(n1)CN([C@H]1CO[C@H](c3cc(F)ccc3F)[C@@H](N)C1)C2 = 66800 ng·h/mL
CS(=O)(=O)n1cc2c(n1)CN([C@@H]1C[C@H](N)[C@@H](c3cc(F)ccc3F)O[C@@H]1C(F)(F)F)C2 = 106000 ng·h/mL

----------
Experiment: Concentration of the compound in monkey plasma by LC-MS/MS
Format: in vivo
Conditions: male, rhesus monkey, Rhesus monkeys, oral 10.0 mg/kg, 240 h
PARAMETER_MEASURED: concentration at 240 h (nM)

CS(=O)(=O)n1cc2c(n1)CN([C@@H]1C[C@H](N)[C@@H](c3cc(F)ccc3F)O[C@@H]1C(F)(F)F)C2 = 41
